target: FGFR1 (SEQ ID NO: 1, amino acids 458-765) (Homo sapiens (Human)); test: LC/MS FGFR1 kobs assay (covalent protein modification); assay type: binding; conditions: 500 nM FGFR1, 3 μM compound
Sequence (P11362 458-765): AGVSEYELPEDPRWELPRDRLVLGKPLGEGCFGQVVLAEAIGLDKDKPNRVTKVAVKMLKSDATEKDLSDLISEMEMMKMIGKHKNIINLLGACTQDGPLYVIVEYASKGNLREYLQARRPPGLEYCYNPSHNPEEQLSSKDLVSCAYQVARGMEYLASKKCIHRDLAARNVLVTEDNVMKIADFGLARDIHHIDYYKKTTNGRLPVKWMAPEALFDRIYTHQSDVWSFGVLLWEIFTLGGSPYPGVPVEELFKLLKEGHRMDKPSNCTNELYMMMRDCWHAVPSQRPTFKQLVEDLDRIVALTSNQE
measurement label: FGFR1 Enz kobs (min⁻¹)

Worked cases, FGFR1 Enz kobs given:
>  <compound>
COc1cc(-c2cnn(C3CCN(C(=O)C4CN(C(=O)/C=C/CN5CCCCC5)C4)CC3)c2)cn2ncc(C#N)c12

>  <FGFR1 Enz kobs [min⁻¹]>
0.00179

$$$$
>  <compound>
C=CC(=O)N1CCC(C(=O)N2CCN(c3ccc(-c4cc(OC)c5c(C#N)cnn5c4)cn3)CC2)CC1

>  <FGFR1 Enz kobs [min⁻¹]>
0.0006

$$$$
>  <compound>
C=CC(=O)N1CC(C)(C(=O)N2CCC(n3cc(-c4cc(OC)c5c(C#N)cnn5c4)cn3)CC2)C1

>  <FGFR1 Enz kobs [min⁻¹]>
0.00134

$$$$
>  <compound>
CC#CC(=O)N1CC(C(=O)N2CCC(n3cc(-c4cc(OC)c5c(C#N)cnn5c4)cn3)CC2)C1

>  <FGFR1 Enz kobs [min⁻¹]>
0.00047

$$$$
>  <compound>
C=CC(=O)NC1CCN(C(=O)c2ccc(-c3cc(OC)c4c(C#N)cnn4c3)cc2)CC1

>  <FGFR1 Enz kobs [min⁻¹]>
0.00005

$$$$
>  <compound>
COc1cc(-c2cnn(C3CCN(C(=O)C4CN(C(=O)/C=C/CN(C)C)C4)CC3)c2)cn2ncc(C#N)c12

>  <FGFR1 Enz kobs [min⁻¹]>
0.00278

$$$$
>  <compound>
C=CC(=O)N1CCC(C(=O)N2CCC(n3ncc(-c4cc(OC)c5c(C#N)cnn5c4)c3C)CC2)CC1

>  <FGFR1 Enz kobs [min⁻¹]>
0.00034

$$$$
>  <compound>
C=CC(=O)NC1CCC(NC(=O)c2ccc(-c3cc(OC)c4c(C#N)cnn4c3)cc2)CC1 (stereo not drawn)

>  <FGFR1 Enz kobs [min⁻¹]>
0.00004

$$$$

a: C=CC(=O)N1CC(CN2CCC(n3ncc(-c4cc(OC)c5c(C#N)cnn5c4)c3C)CC2)C1(C)C (stereo not drawn)
b: C=CC(=O)N1CC(C(=O)N2CCC(n3ncc(-c4cc(OC)c5c(C#N)cnn5c4)c3C)CC2)C1
Compare a and b and name the one whose reported FGFR1 Enz kobs is smaller. Could you answer with the label of the item you picked? a
(a: 0.0008 min⁻¹, b: 0.00183 min⁻¹)
